assay system: Aβ (1–42) (Homo sapiens)
Sequence (P05067 672-713): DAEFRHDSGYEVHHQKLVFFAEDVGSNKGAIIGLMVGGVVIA
experimental protocol: Inhibition of Aβ (1–42) self-induced aggregation (Thioflavin T assay)
cond: read-out: Aβ (1–42) aggregation inhibition (%)
Known inhibition at 20 µM of a selection of compounds
Please reply with the bare figure in % and do not write the unit itself.

Solved cases (4 shown):
> print(dat)
                                   compound              assay.system    recorded.endpoint  value.observed
1  COc1ccc(/C=C/C(=O)Nc2cc[n+](Cc3ccccc3)cc2)cc1OC.[Br-]  Aβ (1–42) (Homo sapiens)  inhibition at 20 µM            55.7
2  COc1ccc(/C=C/C(=O)Nc2cc[n+](Cc3cccc(C)c3)cc2)cc1OC.[Br-]  Aβ (1–42) (Homo sapiens)  inhibition at 20 µM            53.9
3  O=C(C=Cc1ccccc1)Nc1cc[n+](Cc2cccc(F)c2)cc1.[Br-]  Aβ (1–42) (Homo sapiens)  inhibition at 20 µM            53.6
4  COc1ccc(/C=C/C(=O)Nc2cc[n+](Cc3ccc(C)cc3)cc2)cc1OC.[Br-]  Aβ (1–42) (Homo sapiens)  inhibition at 20 µM            63.4

Query the reported inhibition at 20 µM for Aβ (1–42) (Homo sapiens); item: `COc1ccc(/C=C/C(=O)Nc2cc[n+](Cc3cccc(F)c3)cc2)cc1OC.[Br-]`
65.6

Query the reported inhibition at 20 µM for Aβ (1–42) (Homo sapiens); item: `O=C(C=Cc1ccccc1)Nc1cc[n+](Cc2cccc(Br)c2)cc1.[Br-]`
48.8

Query the reported inhibition at 20 µM for Aβ (1–42) (Homo sapiens); item: `COc1ccc(/C=C/C(=O)Nc2cc[n+](Cc3ccc(F)cc3)cc2)cc1OC.[Br-]`
64.7

Query the reported inhibition at 20 µM for Aβ (1–42) (Homo sapiens); item: `O=C(C=Cc1ccccc1)Nc1cc[n+](Cc2ccccc2)cc1.[Br-]`
46.3

Query the reported inhibition at 20 µM for Aβ (1–42) (Homo sapiens); item: `Cc1ccc(C[n+]2ccc(NC(=O)C=Cc3ccccc3)cc2)cc1.[Br-]`
55.1
